target: SCD1 (Homo sapiens); construct: host or cells: S. cerevisiae ole1Δ strain (W303 pdr1Δ pdr3Δ background), plasmid pRS316 with TDH3 promoter and CYC1 terminator; assay: Growth inhibition of humanized yeast strain expressing SCD1 as sole desaturase; type: cell-based; settings: humanized yeast strain expressing SCD1
Sequence (O00767 whole entry): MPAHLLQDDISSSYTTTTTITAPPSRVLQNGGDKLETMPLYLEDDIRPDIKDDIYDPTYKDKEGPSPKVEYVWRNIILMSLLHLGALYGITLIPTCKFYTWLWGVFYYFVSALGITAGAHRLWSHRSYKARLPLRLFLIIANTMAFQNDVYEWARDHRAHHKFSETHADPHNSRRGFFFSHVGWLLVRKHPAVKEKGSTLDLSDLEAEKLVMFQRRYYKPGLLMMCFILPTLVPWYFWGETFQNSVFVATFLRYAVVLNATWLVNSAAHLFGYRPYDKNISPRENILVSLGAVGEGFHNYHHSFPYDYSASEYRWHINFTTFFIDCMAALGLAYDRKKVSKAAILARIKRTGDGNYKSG
measurement-label: SCD1 % Max Inhibition (%)
Respond numerically; units are % and should not be typed.

-- ask Recorded SCD1 % Max Inhibition of COc1ccc(-c2noc(C3CCN(C(=O)/C=C/C(=O)c4ccccc4)CC3)n2)cc1OC [Compound 33] , please.
-- reply 8.14

-- ask Request: Cn1c(=O)n(C)c2cc(-c3noc(C4CCN(C(=O)CNC(=O)c5cccnc5)CC4)n3)ccc21 [Compound 233]
-- reply 73.65

-- ask Request: COc1ccc(-c2noc(C3CCN(C(=O)[C@H](C)NC(=O)c4ccccc4)CC3)n2)cc1OC (single isomer, unassigned) [Compound 59]
-- reply 79.13

-- ask Request: Cc1nn(C)c2cc(-c3noc(C4CCN(C(=O)C5CC(=O)N(c6ccc(F)cn6)C5)CC4)n3)ccc12 (stereo not shown) [Compound 275]
-- reply 76.51

-- ask Request: O=C(NCC(=O)N1CCC(c2nc(-c3ccc4nonc4c3)no2)CC1)c1ccccc1 [Compound 163]
-- reply 55.99

-- ask Request: Cn1ncc2c1CN(c1noc(C3CCN(C(=O)C4CC(=O)N(c5ccccc5)C4)CC3)n1)CC2 (stereo not shown) [Compound 243]
-- reply 94.50

---
-- ask Recorded SCD1 % Max Inhibition of COc1ccc(-c2nsc(C3CCN(C(=O)CNC(=O)c4ccccc4)CC3)n2)cc1OC [Compound 35] , please.
-- reply 79.23
